Tested on: RXF 393 renal
Assay: NCI-60 one-dose screen, 48 h (100 = growth as untreated, 0 = no growth, -100 = all killed)
Details: 10 µM unless noted
About 83,000 compounds went through this panel and 20% of them were active in at least one assay; those are over-represented in the sample as a whole. Calls of active or inactive are those of the source. The calls were made as follows: active = growth percent below 10; inactive = the rest.
ASSAY_METRIC: growth

Query: # get_value(readout='growth', item= CS(=O)(=O)c1nsc(N)n1 )
Reply: 108% (inactive)

Query: Consider the compound CCOC(=O)CN1CCC(C(=O)OCC)CC1 and give its measured growth.
Reply: 127% (inactive)

Query: # growth lookup, item Nc1ccc2ccc(NS(=O)(=O)N3CCCCC3)cc2c1
Reply: 51.4% (inactive)

Query: Item under review: COC(=O)c1nc(N)nc(C(=O)OC)c1C(=O)c1cccc2ccccc12 . Reported growth?
Reply: 105% (inactive)

Query: For the compound COc1ccc(COC=O)cc1 , what growth is on record?
Reply: 110% (inactive)
